run_parameters: 298.15 K; 101.33 kPa; Liquid
mass density values for the compounds below.
measured_property: mass density (kg/m3)

compound	reported
c1ccncc1 [pyridine]	979
C1CCOC1 [tetrahydrofuran]	882.9
CCN(CC)CC [triethylamine]	723.3
ClC=C(Cl)Cl [trichloroethene]	1456.7
ClC(Cl)=C(Cl)Cl [tetrachloroethene]	1616
CCCCCCCCCCCCCC [tetradecane]	760.7

###

run_parameters: 303.15 K; 101.33 kPa; Liquid
measured_property: viscosity (mPa·s)

molecule	measured_property	reported
C1CCOC1 [tetrahydrofuran]	viscosity	0.46
ClC(Cl)=C(Cl)Cl [tetrachloroethene]	viscosity	0.831
ClC=C(Cl)Cl [trichloroethene]	viscosity	0.571
c1ccncc1 [pyridine]	viscosity	0.82
CCN(CC)CC [triethylamine]	viscosity	0.349
CCCCCCCCCCCCCC [tetradecane]	viscosity	1.827

###

viscosity values for the compounds below.
run_parameters: 298.15 K; 101.33 kPa; Liquid

compound	viscosity, mPa·s
CCN(CC)CC	0.367
c1ccncc1	0.885
C1CCOC1 [tetrahydrofuran]	0.485
CCCCCCCCCCCCCC	2.032
ClC(Cl)=C(Cl)Cl	0.875
CCCCN(CCCC)CCCC	1.239
ClC=C(Cl)Cl	0.595

###

run_parameters: 308.15 K; 101.33 kPa; Liquid
mass density values for the molecules below.

molecule	unit_string	mass density
ClC=C(Cl)Cl [trichloroethene]	kg/m3	1439.5
c1ccncc1 [pyridine]	kg/m3	968.6
CCCCCCCCCCCCCC [tetradecane]	kg/m3	753.3
C1CCOC1 [tetrahydrofuran]	kg/m3	871.2
CCCCN(CCCC)CCCC [tributylamine]	kg/m3	765.7
ClC(Cl)=C(Cl)Cl [tetrachloroethene]	kg/m3	1597.5
CCN(CC)CC [triethylamine]	kg/m3	713.7

###

run_parameters: 298.15 K; 101.33 kPa; Liquid
measured_property: speed of sound (m/s)

compound	reported
C1CCOC1 [tetrahydrofuran]	1288
ClC=C(Cl)Cl	1028
ClC(Cl)=C(Cl)Cl	1033
c1ccncc1	1412
CCN(CC)CC	1123
CCCCCCCCCCCCCC	1315
CCCCN(CCCC)CCCC	1262
